Each recorded value in this set is attributed to ChEMBL document CHEMBL1201862.

Recorded GI50 by entry
test system: SK-MEL-28; experiment: NCI tumour cell line growth inhibition, 48 h
Calls of active or inactive are those of the source. No stated cut-off is given here; in the data, active = GI50 up to about 1.1 µM and inactive = higher.

Example compounds with recorded GI50:
Ask | # lookup: GI50 of `O=c1c2cccc3cccc(c4oc5c6cccc7cccc(c(=O)c5c14)c76)c32`
Reply | 13.3 µM (inactive)

Ask | # lookup: GI50 of `CN(C)/C=C(\C(=O)c1ccccc1)n1nc(-c2ccccc2)cc1-c1ccccc1`
Reply | > 10 µM (inactive)

Ask | # lookup: GI50 of `O=C1OCCC1(Cc1ccc(Cl)cc1)Cc1ccc(Cl)cc1`
Reply | > 100 µM (inactive)

Ask | # lookup: GI50 of `CCCC(=O)n1[nH]c(=O)n(-c2ccc(Cl)cc2)c1=O`
Reply | > 100 µM (inactive)

Ask | # lookup: GI50 of `C=CCC1=C(C)C[C@@H]2CCC(=O)C=C12`
Reply | > 100 µM (inactive)

// moving on: another record for GI50
Ask | # lookup: GI50 of `O=C(Nc1ccc(Cl)c(Cl)c1)C(=O)Nn1c(S)nc2ccccc2c1=O`
Reply | > 100 µM (inactive)

###

Recorded GI50 by entry
system: SK-MEL-2; test: NCI tumour cell line growth inhibition, 48 h
Activity calls are given as the source filed them. No stated cut-off is given here; in the data, active = GI50 up to about 1.1 µM and inactive = higher.

Ask | # lookup: GI50 of `Nc1c(C(=O)Nc2ccccc2)[n+]([O-])c2ccccc2[n+]1[O-]`
Reply | 15.8 µM (inactive)

***
Ask | # lookup: GI50 of CCCCCCCCC(O)C#CC(N)=O (stereo unspecified)
Reply | 13.3 µM (inactive)

Ask | # lookup: GI50 of `Cc1c(Cl)cccc1NC(=O)C(=O)C1C(=O)CC(C)(C)CC1=O`
Reply | > 100 µM (inactive)

Ask | # lookup: GI50 of `CC(=O)Nc1ccc(S(=O)(=O)N/N=C/CN2C(=O)c3ccccc3C2=O)cc1`
Reply | > 100 µM (inactive)

Ask | # lookup: GI50 of CC1C(O)=C(O)c2ccccc2N1O (stereo unspecified)
Reply | > 100 µM (inactive)

Ask | # lookup: GI50 of `O=C(CCc1ccc(O)c(O)c1)NCCc1cc(O)cc(OCc2ccccc2)c1`
Reply | 43.1 µM (inactive)

###

Recorded GI50 by entry
system: TK-10; experiment: NCI tumour cell line growth inhibition, 48 h
The source made the active and inactive calls. No stated cut-off is given here; in the data, active = GI50 up to about 1.1 µM and inactive = higher.

Ask | Give the reported GI50 for `O=C(CSc1nnc(-c2ccccn2)s1)N/N=C/c1ccc([N+](=O)[O-])cc1` (system: TK-10).
Reply | 21.7 µM (inactive)

***
Ask | Give the reported GI50 for `COc1ccc(-c2cc(Cc3cccs3)c(=O)[nH]n2)cc1` (system: TK-10).
Reply | > 100 µM (inactive)

Ask | Give the reported GI50 for `CN(C)CCNC(=O)c1cccc2nc3c(ccc4ccccc43)nc12` (system: TK-10).
Reply | 7.93 µM (inactive)

Ask | Give the reported GI50 for `CS(=O)(=O)OCC(CCl)(CCl)CCl` (system: TK-10).
Reply | > 100 µM (inactive)

Ask | Give the reported GI50 for `O=C(CC(=O)Nc1cccc(Cl)c1)NNCC(=O)Nc1nnc(-c2ccccc2)s1` (system: TK-10).
Reply | 45.2 µM (inactive)

###

Recorded GI50 by entry
tested on: UACC-257; test: NCI tumour cell line growth inhibition, 48 h
Calls of active or inactive are those of the source. Cut-off read from the data, not from the text of the source: active = GI50 up to about 1.1 µM and inactive = higher.

Example compounds with recorded GI50:
Ask | Give the reported GI50 for COCC(=O)OC1CCn2c1nc1c2C(=O)C(C)=C(NC(C)=O)C1=O (stereo not given) (system: UACC-257).
Reply | 3.97 µM (inactive)

Ask | Give the reported GI50 for `COc1cc2c3c(n(C)c(=O)c2cc1OC)-c1cc2c(cc1/C3=C\CCCI)OCO2` (system: UACC-257).
Reply | > 100 µM (inactive)

Ask | Give the reported GI50 for `COc1cc2c(NCCN(C)C)nc3c4cc5c(cc4ccc3c2cc1OC)OCO5` (system: UACC-257).
Reply | 4.1 µM (inactive)

Ask | Give the reported GI50 for `O=C(Nc1ccc(Cl)c(Cl)c1)C(=O)Nn1c(S)nc2ccccc2c1=O` (system: UACC-257).
Reply | > 100 µM (inactive)

Ask | Give the reported GI50 for O=C(Cc1ccccc1)NN1C(=O)C(Cl)C1c1ccccc1 (stereo not given) (system: UACC-257).
Reply | > 100 µM (inactive)

Ask | Give the reported GI50 for `C=C1CN(C2=NCCO2)C1` (system: UACC-257).
Reply | > 100 µM (inactive)

Ask | Give the reported GI50 for CCCCOC(=O)C1CN2C=CC=NC2=NC1(C(F)(F)F)C(F)(F)F (stereo not given) (system: UACC-257).
Reply | > 100 µM (inactive)

Ask | Give the reported GI50 for `Nc1nc(Cl)c2ncn(Cc3ccccc3CCl)c2n1` (system: UACC-257).
Reply | 13.1 µM (inactive)

Ask | Give the reported GI50 for `C/C(CC(=O)Nc1ccc([N+](=O)[O-])cc1)=N\Nc1ccc([N+](=O)[O-])cc1[N+](=O)[O-]` (system: UACC-257).
Reply | 47.1 µM (inactive)

// moving on: another record for GI50
Ask | Give the reported GI50 for `CC(C)(C(=O)N(C(=O)N1CCN(c2ccccc2)CC1)S(=O)(=O)c1ccccc1)c1ccc(Cl)cc1` (system: UACC-257).
Reply | 46.7 µM (inactive)

###

system: SW-620; assay: NCI tumour cell line growth inhibition, 48 h
The source made the active and inactive calls. No stated cut-off is given here; in the data, active = GI50 up to about 1.1 µM and inactive = higher.
Could you please pick one outcome from this set? active, inactive

Solved cases below.
Ask | So what was the verdict on `Cc1c(S(=O)(=O)N/C(=N\O)Nc2ccc(Cl)c(Cl)c2)sc2ccc(Cl)cc12` in this test?
Reply | inactive

Ask | So what was the verdict on `COC(=O)c1cc(CNCCc2c[nH]c3ccccc23)on1` in this test?
Reply | inactive

Ask | So what was the verdict on `Cc1ccc([Se](=C(C(=O)c2ccccc2)C(=O)c2ccccc2)c2ccc(C)cc2)cc1` in this test?
Reply | inactive

Ask | So what was the verdict on `O=C(CC(=O)Nc1cccc(Cl)c1)NNCC(=O)Nc1nnc(-c2ccccc2)s1` in this test?
Reply | inactive

***
Ask | So what was the verdict on `Cc1c2c(C#N)nccc2c(C)c2c1c1ccccc1n2Cc1ccccc1` in this test?
Reply | inactive

Ask | So what was the verdict on `CS(=O)(=O)OCC(CCl)(CCl)CCl` in this test?
Reply | inactive

Ask | So what was the verdict on CC(=O)C1C(c2ccccc2)C2(C)OC(=O)C(C#N)C12C (configuration not stated) in this test?
Reply | inactive

Ask | So what was the verdict on `O=C(Nc1noc(-c2ccccc2)n1)c1ccccc1CNc1noc(-c2ccccc2)n1` in this test?
Reply | inactive

Ask | So what was the verdict on COc1cc(C2c3[nH]c4ccc(F)cc4c3C[C@H]3COC(=O)N23)cc(OC)c1O (some centres not stated) in this test?
Reply | inactive

Ask | So what was the verdict on `Cn1ccc(C(=O)N2CCSC2=S)c(OCc2ccccc2)c1=O` in this test?
Reply | inactive

###

Recorded GI50 by entry
system: PC-3; assay: NCI tumour cell line growth inhibition, 48 h
Calls of active or inactive are those of the source. Rule as the data show it: active = GI50 up to about 1.1 µM and inactive = higher.

Ask | # lookup: GI50 of CC(=O)Nc1cccc(N2C(=O)/C(=C\c3cccc(Oc4ccccc4)c3)S(=O)(=O)C2c2ccccc2)c1 (stereo not given)
Reply | 64.3 µM (inactive)

###

system: OVCAR-3; test: NCI tumour cell line growth inhibition, 48 h
Active and inactive are the calls of the source. Cut-off read from the data, not from the text of the source: active = GI50 up to about 1.1 µM and inactive = higher. Where a SMILES comes first, the peptide text is derived from it. [ ]: non-standard residue; d: D form. The star is where a group is joined. Cbz = O=C(OCc1ccccc1)*; Aib = CC(C)(N)C(=O)O; OBn = c1ccc(CO*)cc1
Could you please pick one outcome from this set? yes (1) (active), no (0) (inactive)

Solved cases below.
Ask | So what was the verdict on `Cc1cc(N(CCC#N)CCC#N)ccc1/C=C(\NC(=O)/C=C/c1ccccc1)NC(=O)Nc1ccccc1C` in this test?
Reply | no (0)

Ask | So what was the verdict on `c1ccc(NN=C(c2ccccn2)c2ccccn2)nc1` in this test?
Reply | yes (1)

Ask | So what was the verdict on `Oc1ccc[n+](Cc2ccccc2)c1` in this test?
Reply | no (0)

Ask | So what was the verdict on `Cc1ccc(C)c(NC(=O)c2cc(-c3ccc([N+](=O)[O-])cc3)nc(N)n2)c1` in this test?
Reply | no (0)

Ask | So what was the verdict on `O=C1NC(N2CCCCC2)=N/C1=C\c1ccc(Cl)cc1` in this test?
Reply | no (0)

Ask | So what was the verdict on CC(NC(=O)C(C)(C)NC(=O)C(CC(=O)OCc1ccccc1)NC(=O)OCc1ccccc1)C(N)=O (stereo not given) (Cbz-Asp(OBn)-[Aib]-Ala-NH2; configuration not given here) in this test?
Reply | no (0)

***
Ask | So what was the verdict on `CCCCN(CCCC)C1=Nc2ccccc2-n2c(nnc2C(=O)OCC)C1` in this test?
Reply | no (0)

Ask | So what was the verdict on `CC1=C[C@@H](C)C[C@]2(C)CC[C@H](O2)[C@]23CC[C@](C)(C[C@H](O2)[C@@H]2O[C@@](C)(CC2=O)[C@@H](O)[C@H]2CC[C@@]4(CCC[C@@H](O4)[C@H](C)C(=O)O[C@H]4C[C@H]([C@]5(O)OCC[C@H](C)[C@@H]5O)O[C@H]4C=C1)O2)O3` in this test?
Reply | yes (1)

Ask | So what was the verdict on `COc1ccc2c(C=O)c3n(c(=O)c2c1OC)CCc1cc2c(cc1-3)OCO2` in this test?
Reply | no (0)

Ask | So what was the verdict on `Cc1c2ccccc2nc2[nH]c3ccncc3c12` in this test?
Reply | no (0)
